Cell Viability reference
Test system: Colon cancer organoid
protocolDescription: Identification of compartment-specific drug sensitivities in O06 CRC organoid-stroma F06 CAF co-cultures. Organoid is transduced with Lucferase2-P2A-EGFP lentivirus, fibroblast with Renilla-dsRed lentivirus. Dual-Glo Luciferase assay is used to report viability data.
Format: functional, Homo sapiens
Design: dose or concentration left out as unconfirmed
measurementSetup: Transduced with Renilla-dsRed lentivirus
Hi! Could you send only the number? It should be in %, unit omitted.

COc1cc(Nc2nc(C)cc(-c3cnn4nc(OC)ccc34)n2)cc(C(F)(F)F)c1; 98.9895

# lookup: Cell Viability of CNCc1ccccc1-c1csc([C@@H](C)Nc2nc(C)nc3cc(OC)c(OC)cc23)c1 [BAY-293]
141.656

Entry Cl.Cl.c1ccc([C@@H]2C[C@H]2NC2CCNCC2)cc1 has what Cell Viability?
97.0217

Any idea what its Cell Viability is? The compound is O=C(NC[C@H](O)CN1CCc2ccccc2C1)c1ccnc(NC2CCC2)c1
110.399

Given the entry CS(=O)(=O)N1CCN(Cc2cc3nc(-c4cccc5[nH]ncc45)nc(N4CCOCC4)c3s2)CC1 [PICTILISIB] , report its measured Cell Viability.
60.0718

# Cell Viability lookup, item O=C(NOC[C@H](O)CO)c1ccc(F)c(F)c1Nc1ccc(I)cc1F [MIRDAMETINIB]
49.9042

GET /values?readout=Cell Viability&item= N#CN1CC[C@@H](C(=O)Nc2nc3c(s2)CN(C(=O)CN=[N+]=[N-])CC3)C1 [JYQ88]
58.5555

Find the recorded Cell Viability belonging to CN(C)CCCOc1ccc(-c2cc(NCCCn3cccn3)nc(S(C)(=O)=O)n2)cc1 and report it.
129.443

Look up Cell Viability for this compound: N#CC1(c2ccccn2)CCN(Cc2cc(C(=O)O)c(=O)n3ccccc23)CC1 [MSD-M1PAM]
188.309
